Below, each entry is listed alongside its reported Kd.
# experimental.system: T1, GFP-9S library array, motif 4 ND D124I (synthetic construct, D124I)
# T1 chain: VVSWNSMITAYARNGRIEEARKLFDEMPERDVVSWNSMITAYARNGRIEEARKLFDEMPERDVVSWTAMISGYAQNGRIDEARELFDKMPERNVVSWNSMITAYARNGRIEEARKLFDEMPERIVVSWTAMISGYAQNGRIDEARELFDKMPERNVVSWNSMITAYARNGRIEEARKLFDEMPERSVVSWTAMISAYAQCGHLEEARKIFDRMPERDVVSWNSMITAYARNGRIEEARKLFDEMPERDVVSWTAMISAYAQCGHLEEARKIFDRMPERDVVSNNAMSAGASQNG
# assay: high-throughput RNA pulldown from lysate on Ni-NTA beads; HRP: 50 mM Tris pH 8, 150 mM NaCl, 1 mM beta-mercaptoethanol, 50 ug/ml BSA, 3 ug/ml yeast RNA, 0.5% heparin; ITC and FP: Tris pH 8, 200 mM KCl, 5% glycerol; MST: 50 mM Tris pH 8, 200 mM NaCl, 1 mM DTT, BSA, heparin, 0.05% Tween 20
# settings: tags: N-terminal His-eGFP; label: 5' IRDye 800CW
Give the figure together with its unit, number first.

AUUAAACGUGA (ssRNA) [IR-rpoA-A] :: 184 nM

# ---- query binder ----
Query AUUAUACGUGA (ssRNA) [IR-rpoA-U] yields Kd of 26.7 nM
